system: RKO; assay: cells; format: cell-based; conditions: Homo sapiens, RKO, read-out: Basal_Viability ATP RKO
Parameter: pIC50
Friendly reminder that pIC50 comes from taking -log10 of the concentration in mol/L.

> print(dat)
                                   compound  parameter  recorded.result
1  COP(=S)(OC)Oc1ccc(Sc2ccc(OP(=S)(OC)OC)cc2)cc1 [temephos]      pIC50             4.92
2   Cc1cc(C2CCCCC2)n(O)c(=O)c1 [ciclopirox]      pIC50             6.63
3  COc1ccc(-c2ccc3cc(C(=O)O)ccc3c2)cc1C12CC3CC(CC(C3)C1)C2 [Adapalene]      pIC50             6.35

Pending compound:
The measured pIC50 associated with O=C(NOCC1CC1)c1ccc(F)c(F)c1Nc1ccc(I)cc1Cl [PD-184352, reference compound] reads 8.50
